target: histamine receptor H1 (Homo sapiens, UniProt P35367); assay: Histamine H1 radioligand binding ([3H]Pyrilamine); details: read-out: Histamine Binding (1 μM) H1, percent inhibition of specific binding, 1 μM
Sequence (P35367 whole entry): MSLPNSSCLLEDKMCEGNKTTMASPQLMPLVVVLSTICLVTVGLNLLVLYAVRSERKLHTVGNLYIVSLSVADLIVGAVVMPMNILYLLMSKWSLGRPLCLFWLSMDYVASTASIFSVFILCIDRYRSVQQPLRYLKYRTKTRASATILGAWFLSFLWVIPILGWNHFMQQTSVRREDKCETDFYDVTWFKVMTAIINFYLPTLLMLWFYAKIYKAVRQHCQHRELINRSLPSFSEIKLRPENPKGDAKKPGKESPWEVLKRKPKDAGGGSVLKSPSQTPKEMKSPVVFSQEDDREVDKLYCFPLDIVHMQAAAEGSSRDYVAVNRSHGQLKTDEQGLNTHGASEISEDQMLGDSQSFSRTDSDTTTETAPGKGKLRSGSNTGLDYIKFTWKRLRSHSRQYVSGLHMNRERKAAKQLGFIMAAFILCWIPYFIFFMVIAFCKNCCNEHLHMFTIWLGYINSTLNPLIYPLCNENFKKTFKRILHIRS
Reported Metric: inhibition at 1 µM (%)
Answer with a number only, understood to be in %.

Exam item: Please give the documented inhibition at 1 µM of "C/C(=C\n1c2c(c3cc(Cl)ccc31)CN(C)CC2)c1ccc(Cl)c(Cl)c1"
Marked response: 81

Exam item: State, in one line, measured inhibition at 1 µM of "C/C(=C\n1c2c(c3cc(Cl)ccc31)CN(C)CC2)c1cnccn1"
Marked response: 29

Exam item: Indicate the recorded inhibition at 1 µM value for this compound: "C/C(=C\n1c2c(c3cc(C)ccc31)CN(C)CC2)c1ccc(C)nc1"
Marked response: 9

Exam item: Entry "C/C(=C\n1c2c(c3cc(C(C)C)ccc31)CN(C)CC2)c1ccncc1" needs its inhibition at 1 µM filled in; supply it.
Marked response: 6

Exam item: Return reported inhibition at 1 µM. Input compound: "C/C(=C\n1c2c(c3ccc(Cl)cc31)CN(C)CC2)c1ccncc1"
Marked response: 60

Exam item: Determine its reported inhibition at 1 µM: "C=C(Cn1c2c(c3cc(C)ccc31)CN(C)CC2)c1cnccn1"
Marked response: 95

Exam item: Entry "C/C(=C\n1c2c(c3cccc(F)c31)CN(C)CC2)c1ccncc1" needs its inhibition at 1 µM filled in; supply it.
Marked response: 6

Exam item: Please list inhibition at 1 µM recorded for the compound "C/C(=C\n1c2c(c3cc(C)ccc31)CN(C)CC2)c1ccc(Cl)c(Cl)c1"
Marked response: 58

Exam item: Give reported inhibition at 1 µM value for Cc1ccc(C(O)Cn2c3c(c4ccccc42)CN(C)CC3)cc1 (racemic)
Marked response: 47

Exam item: Answer with the recorded inhibition at 1 µM for the compound listed here: "C/C(=C/n1c2c(c3cc(Cl)ccc31)CN(C)CC2)c1ccccc1F"
Marked response: 70

Exam item: Name the recorded inhibition at 1 µM of the compound listed here: "CC(C)=C(Cn1c2c(c3cc(Cl)ccc31)CN(C)CC2)c1ccncc1"
Marked response: 61

Exam item: Answer with the recorded inhibition at 1 µM of "Cc1ccc2c(c1)c1c(n2C#Cc2ccncn2)CCN(C)C1" only.
Marked response: 26

Exam item: Quote inhibition at 1 µM reported for "C/C(=C\n1c2c(c3cc(Cl)ccc31)CN(CCC(C)(C)O)CC2)c1ccc(F)cc1" please.
Marked response: 61

Exam item: Respond only with inhibition at 1 µM recorded for "Cc1ccc2c(c1)c1c(n2/C=C(\F)c2cscn2)CCN(C)C1"
Marked response: 92

Exam item: Provide one value: measured inhibition at 1 µM of Cc1ccc2c(c1)c1c(n2CC(C)(O)c2ccc(F)cc2)CCN(C)C1 (stereo not drawn)
Marked response: 91

Exam item: Recall and state the measured inhibition at 1 µM for "C=C(Cn1c2c(c3cc(Cl)ccc31)CN(C)CC2)c1ccc(OC)c(F)c1" .
Marked response: 98

Exam item: Tell me inhibition at 1 µM reported for CC(O)(Cn1c2c(c3cc(Cl)ccc31)CN(CCCC(=O)c1ccc(F)cc1)CC2)c1ccncc1 (stereo not drawn)
Marked response: 66

Exam item: For "C/C(=C\n1c2c(c3cccc(F)c31)CN(C)CC2)c1ccc(C)nc1" , write its inhibition at 1 µM.
Marked response: -19
